Molecular target: 1-deoxy-D-xylulose 5-phosphate reductoisomerase (Mycobacterium smegmatis (strain ATCC 700084 / mc(2)155))
Sequence (A0QVH7 whole entry): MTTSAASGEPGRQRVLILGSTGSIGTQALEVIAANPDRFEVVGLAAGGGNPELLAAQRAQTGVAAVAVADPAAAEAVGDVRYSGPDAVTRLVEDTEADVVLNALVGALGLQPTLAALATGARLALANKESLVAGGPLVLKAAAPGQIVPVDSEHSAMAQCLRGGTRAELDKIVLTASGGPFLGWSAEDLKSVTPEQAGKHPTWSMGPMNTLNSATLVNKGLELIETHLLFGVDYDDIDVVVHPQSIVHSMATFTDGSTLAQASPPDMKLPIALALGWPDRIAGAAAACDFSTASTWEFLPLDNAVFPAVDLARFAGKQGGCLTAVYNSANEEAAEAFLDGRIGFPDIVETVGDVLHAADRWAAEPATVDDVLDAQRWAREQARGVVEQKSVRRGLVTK
Assay: Inhibition of Mycobacterium smegmatis DXR
Set-up: species or system Mycolicibacterium smegmatis
pIC50: −log10 of the molar value.

[
  {
    "compoundString": "O=CN(O)CCCP(=O)(O)O",
    "pIC50": 7.10
  }
]

---

System: Escherichia coli
Assay: Antimycobacterial activity against Escherichia coli at 400 nmol/disc after 24 hrs by paper disc diffusion method
Assay type: functional, organism-based
The source made the active and inactive calls. The calls are words filed in the database; no cut-off is given here.

[
  {
    "compoundString": "CCCC(=O)OCOP(=O)(CCCC(=O)NO)OCOC(=O)CCC",
    "growth inhibition (GI)": "inactive"
  },
  {
    "compoundString": "CC(C)(C)C(=O)OCOP(=O)(CCCC(=O)NO)OCOC(=O)C(C)(C)C",
    "growth inhibition (GI)": "inactive"
  },
  {
    "compoundString": "CCCC(=O)OCOP(=O)(CCCC(=O)N(C)O)OCOC(=O)CCC",
    "growth inhibition (GI)": "inactive"
  }
]
